// provenance: the supplement of paper PMC8617591

Exercise: state measured FIC50 for each of the compounds provided.
- Test system: Mycobacterium tuberculosis Erdman (autoluminescent)
- Assay procedure: FIC50 (Loewe) at 50% inhibition (log2); higher = more antagonistic
- Applied conditions: in vitro model: cholesterol 0.05 mM; time point: terminal (~4-5 doublings, model-specific)

[Q] Tell me the measured FIC50 of CC[C@@H](CO)NCCN[C@@H](CC)CO [ethambutol] + NNC(=O)c1ccncc1 [isoniazid] , please.
[A] 0.82

[Q] Form field: reported FIC50 of CC(C)/N=c1\cc2n(-c3ccc(Cl)cc3)c3ccccc3nc-2cc1Nc1ccc(Cl)cc1 [clofazimine] + CC(=O)NC[C@H]1CN(c2ccc(N3CCOCC3)c(F)c2)C(=O)O1 [linezolid]
[A] -0.033

[Q] Request the reported FIC50 associated with COc1nc2ccc(Br)cc2cc1[C@@H](c1ccccc1)[C@@](O)(CCN(C)C)c1cccc2ccccc12 [bedaquiline] + NNC(=O)c1ccncc1 [isoniazid]
[A] 0.302

[Q] // returns reported FIC50 for input CO[C@H]1/C=C/O[C@@]2(C)Oc3c(C)c(O)c4c(O)c(c(/C=N/N5CCN(C6CCCC6)CC5)c(O)c4c3C2=O)NC(=O)/C(C)=C\C=C\[C@H](C)[C@H](O)[C@@H](C)[C@@H](O)[C@@H](C)[C@H](OC(C)=O)[C@@H]1C [rifapentine] + CO[C@H]1/C=C/O[C@@]2(C)Oc3c(C)c(O)c4c(O)c(c(/C=N/N5CCN(C)CC5)c(O)c4c3C2=O)NC(=O)/C(C)=C\C=C\[C@H](C)[C@H](O)[C@@H](C)[C@@H](O)[C@@H](C)[C@H](OC(C)=O)[C@@H]1C [rifampicin]
[A] -0.246

[Q] Entry CC(=O)NC[C@H]1CN(c2ccc(N3CCOCC3)c(F)c2)C(=O)O1 [linezolid] + COc1c(N2C[C@@H]3CCCN[C@@H]3C2)c(F)cc2c(=O)c(C(=O)O)cn(C3CC3)c12 [moxifloxacin] : reported FIC50 = ?
[A] 0.0528

[Q] Given the compound COc1nc2ccc(Br)cc2cc1[C@@H](c1ccccc1)[C@@](O)(CCN(C)C)c1cccc2ccccc12 [bedaquiline] + CO[C@H]1/C=C/O[C@@]2(C)Oc3c(C)c(O)c4c(O)c(c(/C=N/N5CCN(C6CCCC6)CC5)c(O)c4c3C2=O)NC(=O)/C(C)=C\C=C\[C@H](C)[C@H](O)[C@@H](C)[C@@H](O)[C@@H](C)[C@H](OC(C)=O)[C@@H]1C [rifapentine] , what is its reported FIC50?
[A] 0.341

[Q] Fill blank: measured FIC50 of the compound NNC(=O)c1ccncc1 [isoniazid] + COc1c(N2C[C@@H]3CCCN[C@@H]3C2)c(F)cc2c(=O)c(C(=O)O)cn(C3CC3)c12 [moxifloxacin] is ____.
[A] 0.0269
